- study-target: ΔF508-CFTR (Homo sapiens, UniProt P13569, DEL508-508)
- Sequence (P13569 with tags, fused parts or gaps DEL508-508): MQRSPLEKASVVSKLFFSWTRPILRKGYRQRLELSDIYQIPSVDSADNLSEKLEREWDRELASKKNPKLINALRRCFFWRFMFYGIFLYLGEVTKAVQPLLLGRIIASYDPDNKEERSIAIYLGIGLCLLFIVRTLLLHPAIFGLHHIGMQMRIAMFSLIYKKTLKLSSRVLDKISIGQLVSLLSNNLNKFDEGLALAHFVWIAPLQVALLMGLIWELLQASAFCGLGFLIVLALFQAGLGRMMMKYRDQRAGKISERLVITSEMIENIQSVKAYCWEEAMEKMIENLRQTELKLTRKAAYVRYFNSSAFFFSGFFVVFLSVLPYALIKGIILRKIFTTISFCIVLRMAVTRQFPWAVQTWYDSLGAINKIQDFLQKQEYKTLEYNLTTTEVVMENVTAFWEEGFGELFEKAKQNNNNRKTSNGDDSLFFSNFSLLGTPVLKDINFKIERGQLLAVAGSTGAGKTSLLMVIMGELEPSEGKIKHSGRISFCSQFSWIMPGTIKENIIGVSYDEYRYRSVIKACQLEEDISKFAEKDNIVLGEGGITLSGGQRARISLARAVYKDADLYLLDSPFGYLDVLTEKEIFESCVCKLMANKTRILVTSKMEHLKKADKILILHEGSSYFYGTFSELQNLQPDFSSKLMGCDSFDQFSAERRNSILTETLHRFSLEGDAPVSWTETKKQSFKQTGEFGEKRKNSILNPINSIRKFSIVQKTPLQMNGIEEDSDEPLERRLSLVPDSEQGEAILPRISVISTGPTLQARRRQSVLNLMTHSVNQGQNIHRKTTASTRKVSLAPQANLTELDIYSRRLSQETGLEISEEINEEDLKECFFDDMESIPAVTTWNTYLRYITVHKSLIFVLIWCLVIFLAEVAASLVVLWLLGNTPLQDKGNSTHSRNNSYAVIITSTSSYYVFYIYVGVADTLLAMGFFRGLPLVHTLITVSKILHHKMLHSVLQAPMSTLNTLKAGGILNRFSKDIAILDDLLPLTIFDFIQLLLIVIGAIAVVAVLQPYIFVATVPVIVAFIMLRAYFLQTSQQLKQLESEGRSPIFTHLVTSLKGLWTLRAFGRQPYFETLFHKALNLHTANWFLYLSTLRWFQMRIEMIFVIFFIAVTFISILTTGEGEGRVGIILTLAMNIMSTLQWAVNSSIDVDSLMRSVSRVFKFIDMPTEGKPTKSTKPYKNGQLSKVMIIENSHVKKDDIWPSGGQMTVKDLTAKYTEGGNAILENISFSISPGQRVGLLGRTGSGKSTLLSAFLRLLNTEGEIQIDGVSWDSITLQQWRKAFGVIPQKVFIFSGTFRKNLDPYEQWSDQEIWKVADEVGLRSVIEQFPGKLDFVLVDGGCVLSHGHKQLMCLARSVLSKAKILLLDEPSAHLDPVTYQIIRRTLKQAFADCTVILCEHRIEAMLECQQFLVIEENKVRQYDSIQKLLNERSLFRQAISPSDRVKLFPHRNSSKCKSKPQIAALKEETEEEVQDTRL
- procedure-text: Membrane potential optical (FRET/VIPR) assay, identification of potentiator compounds
- measurement-conditions: Table 3; assay not given
EC50 reference

1. O=C(Nc1cc(Cl)cc(NS(=O)(=O)CCN2CCCCC2)c1)c1c[nH]c2ccccc2c1=O [Compound 133]: 10 to 25 µM

Lab book: EC50 of O=C(Nc1ccccc1-c1ccccc1)c1c[nH]c2cc(C(F)(F)F)ccc2c1=O [Compound 469] noted as < 10 µM

Record CC1CCN(c2ccc(NC(=O)c3c[nH]c4ccccc4c3=O)c(C(F)(F)F)c2)C1 (stereo not shown) [Compound 555] . Reported EC50: < 10 µM

Input COc1cccc(-c2ccccc2NC(=O)c2c[nH]c3ccccc3c2=O)c1 [Compound 283] . Output EC50: < 10 µM

Record CC(C)(C)c1cc(C(C)(C)C)c(NC(=O)c2c[nH]c3c(C#N)cccc3c2=O)cc1O [Compound 505] . Reported EC50: < 10 µM

Form: compound = CC(C)(C)c1cc(C(C)(C)C)c(NC(=O)c2c[nH]c3ccccc3c2=O)cc1O [Compound 433] ; EC50 = < 10 µM
